Measured selective drug sensitivity score accompanies every entry in the list below.
System: PEER;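 also: ALL cell lines in 384-well plates, five doses spanning 10,000-fold, each plate scaled between vehicle and 100 µmol/L benzalkonium chloride controls, sDSS an adapted area-under-curve metric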
EXPERIMENT_NOTES: selective drug sensitivity score (sDSS, relative to normal bone marrow) (sDSS (score)); higher = more potent and effective on the cell line relative to normal bone marrow cells
STATED_CONDITIONS: 72 h
OBSERVATION_TYPE: selective drug sensitivity score

1. COc1c(C)cnc(Cn2cnc3c(Cl)nc(N)nc32)c1C [BIIB021] (top concentration 10000 nM) = 3.58
2. COc1cc2c(cc1-c1c(C)noc1C)ncc1[nH]c(=O)n([C@H](C)c3ccccn3)c12 [I-BET151] (top concentration 10000 nM) = 1.26
3. Cc1c2oc3c(C)ccc(C(=O)N[C@@H]4C(=O)N[C@H](C(C)C)C(=O)N5CCC[C@H]5C(=O)N(C)CC(=O)N(C)[C@@H](C(C)C)C(=O)O[C@@H]4C)c3nc-2c(C(=O)N[C@@H]2C(=O)N[C@H](C(C)C)C(=O)N3CCC[C@H]3C(=O)N(C)CC(=O)N(C)[C@@H](C(C)C)C(=O)O[C@@H]2C)c(N)c1=O [Dactinomycin] (top concentration 1000 nM) = 0.64
4. O=C(O)CC[C@H]1CC[C@@](c2cc(F)ccc2F)(S(=O)(=O)c2ccc(Cl)cc2)CC1 [MK-0752] (top concentration 1000 nM) = 0
5. CC(C)N(CCCNC(=O)Nc1ccc(C(C)(C)C)cc1)C[C@H]1O[C@@H](n2cc(Br)c3c(N)ncnc32)[C@H](O)[C@@H]1O [SGC0946] (top concentration 10000 nM) = 0.88
6. CCC1(c2ccc(N)cc2)CCC(=O)NC1=O (centres undefined) [Aminoglutethimide] (top concentration 10000 nM) = 0
7. CCCCCCCCCCCCCCCCCCOP(=O)([O-])OC1CC[N+](C)(C)CC1 [Perifosine] (top concentration 2500 nM) = -0.36
8. CN1C(=O)N[C@H](Cc2c[nH]c3c(Cl)cccc23)C1=O [Necrostatin_2] (top concentration 10000 nM) = -0.08
9. Cn1cc(-c2[nH]c3cc(NC(=O)[C@H](N)C4CCCCC4)cc4c3c2C=NNC4=O)cn1 (top concentration 10000 nM) = 5.68
10. Cc1nc(Nc2n[nH]c3c2CN(C(=O)N[C@H](CN(C)C)c2ccccc2)C3(C)C)c2sccc2n1 (top concentration 10000 nM) = -3.12
11. COc1cccc2c1C(=O)c1c(O)c3c(c(O)c1C2=O)C[C@@](O)(/C(CO)=N/NC(=O)CCCCCN1C(=O)C=CC1=O)C[C@@H]3O[C@H]1C[C@H](N)[C@H](O)[C@H](C)O1 [Aldoxorubicin] (top concentration 1000 nM) = -3.06
12. N.N.[Cl][Pt][Cl] [Cisplatin] (top concentration 100000 nM) = 2.64
13. C[C@@H](Nc1cc(F)cc(F)c1)c1cc(C(=O)N(C)C)cc2c(=O)cc(N3CCOCC3)oc12 [AZD-8186] (top concentration 1000 nM) = -0.26
14. CNc1ncc2cc(-c3cc(NC(=O)NCCC(C)(C)C)c(F)cc3C)c(C)nc2n1 (top concentration 10000 nM) = 15
15. COCCNCc1ccc(-c2cc3nccc(Oc4ccc(NC(=O)C5(C(=O)Nc6ccc(F)cc6)CC5)cc4F)c3s2)nc1 [Sitravatinib] (top concentration 2500 nM) = 7.38
16. C[C@@H]1CCN(C(=O)CC#N)C[C@@H]1N(C)c1ncnc2[nH]ccc12 [Tofacitinib] (top concentration 5000 nM) = -4.66
17. Cc1ccc(-n2nc(C(C)(C)C)cc2NC(=O)Nc2ccc(OCCN3CCOCC3)c3ccccc23)cc1 [Doramapimod] (top concentration 10000 nM) = 1.86
18. C[C@H]1C=C2C(=O)O[C@H]3CC[C@@H](C1)[C@@]23O [Galiellalactone] (top concentration 25000 nM) = 1.66
19. CC[C@H](CO)Nc1nc(NCc2ccccc2)c2ncn(C(C)C)c2n1 [Seliciclib] (top concentration 10000 nM) = -0.24
20. CCCCCCCCCCCCCCCCOP(=O)([O-])OCC[N+](C)(C)C [Miltefosine] (top concentration 100000 nM) = 13.1
21. COc1cc(CCc2cc(NC(=O)c3ccc(N4CC(C)NC(C)C4)cc3)n[nH]2)cc(OC)c1 (centres undefined) [AZD4547] (top concentration 1000 nM) = -0.14
22. O=C(/C=C\n1cnc(-c2cc(C(F)(F)F)cc(C(F)(F)F)c2)n1)NNc1cnccn1 [Selinexor] (top concentration 10000 nM) = 10.2
23. CCS(=O)(=O)Nc1ccc(Oc2ccc(F)cc2F)c(-c2cn(C)c(=O)c3[nH]ccc23)c1 [Mivebresib] (top concentration 10000 nM) = 1.1
24. Nc1ccn([C@@H]2O[C@H](CO)[C@@H](O)C2(F)F)c(=O)n1 [Gemcitabine] (top concentration 1000 nM) = 5.06
